FYI, the data here is from ChEMBL document CHEMBL5058577.

Population Mitochondria Different-Phenotype (%) reference
system: HEK-293T; assay: Multiplex assay against HEK293T; format: toxicity, cell-based; conditions: human, 12 h, 10 µM, compound concentration 10 uM, replicate 1
Write down the value, and be sure its unit follows.

The following molecules have reported results that may help.
> print(dat)
                                   molecule  targetdesc  obsvalue
1      CC(=O)NCCc1c(Cc2ccccc2)[nH]c2ccccc12    HEK-293T       61%
2  CSCC[C@H](NC=O)C(=O)N[C@@H](CC(C)C)C(=O)N[C@@H](Cc1ccccc1)C(=O)O    HEK-293T       52%
3  Cc1ccc(C(C)(O)c2nc3ccccc3s2)c(C)c1 (stereo not given)    HEK-293T       62%

Sample `O=C(O)Cc1ccccc1Nc1c(Cl)cccc1Cl` ; Population Mitochondria Different-Phenotype (%) observed: 45%

The value of Population Mitochondria Different-Phenotype (%) measured for the molecule `COc1c(C)cc(NC(=O)c2nn(Cc3ccc(F)cc3)c3c2CN(C(=O)c2ccc[nH]2)C[C@]3(C)C(N)=O)cc1C` turned out to be 90%

---

system: HEK-293T; experiment: Multiplex assay against HEK293T; format: toxicity, cell-based; conditions: human, 12 h, 10 µM, compound concentration 10 uM, replicate 2
# key: entry, value: Population Apoptotic (%)
// note: answer is a bare numeric in %

Here is how some compounds turned out for Population Apoptotic (%).
compound	obsValue
O=C(NCCO)c1cccc(-c2cc(Nc3ccc(OC(F)(F)F)cc3)ncn2)c1	63
CN1CCN2c3ncccc3Cc3ccccc3C2C1 (centres undefined)	47
O=C(O)c1cc2ccccc2c(Cc2c(O)c(C(=O)O)cc3ccccc23)c1O	52

Let us move to another entry and its Population Apoptotic (%).
The measured Population Apoptotic (%) that `CC[C@H]1OC(=O)[C@H](C)[C@@H](O[C@H]2C[C@@](C)(OC)[C@@H](O)[C@H](C)O2)[C@H](C)[C@@H](O[C@@H]2O[C@H](C)C[C@H](N(C)C)[C@H]2O)[C@@]2(C)CC(C)=C(O2)[C@H](C)[C@@H](O)[C@]1(C)O` showed for HEK-293T is 56

---

system: U2OS; assay: Multiplex assay against U2OS; assay type: toxicity, cell-based; details: human, 48 h, 1 µM, compound concentration 1 uM, replicate 2
assayReadout: Population Hoechst High Intensity Objects (%)
Give just the number in %; leave the unit off.

Past entries and their recorded results:
> print(dat)
                                   molecule  obsvalue
1  CN1CCN(c2nc3cc(C(F)(F)F)ccc3n3cccc23)CC1.O=C(O)/C=C\C(=O)O.O=C(O)/C=C\C(=O)O         1
2  Cc1ccc(C(C)(O)c2nc3ccccc3s2)c(C)c1 (stereo not given)         3
3        Cc1ccc(/C(=C\CN2CCCC2)c2ccccn2)cc1         3
4  COc1ccc2c(c1)C(C(=O)N(Cc1ccc(N(C)C)cc1)c1ccc(C(C)C)cc1)CCC2.Cl (stereo not given)         3

`CC1(COc2ccc3c(c2)ncn3-c2ccc3cccc(N4CCC(N)CC4)c3n2)COC1` yielded Population Hoechst High Intensity Objects (%) of 4

---

test system: Fibroblast; test: Multiplex assay against human fibroblast; assay type: toxicity, cell-based; details: 24 h, 10 µM, compound concentration 10 uM, replicate 2
Respond with yes (1) for Population Mitotic Cells (%) values of 60% and above, no (0) for values below.

Example entries begin here.
> print(dat)
                                        smi  categorylabel
1  COc1cc(NC(=O)CCN2CCC(OC(=O)Nc3ccccc3-c3ccccc3)CC2)c(Cl)cc1CNC[C@H](O)c1ccc(O)c2[nH]c(=O)ccc12         no (0)
2  O=C(NCC(=O)N1CC[C@H](N[C@H]2CC[C@@](O)(c3ccc(-c4ncccn4)cn3)CC2)C1)c1cccc(C(F)(F)F)c1        yes (1)
3   CN(C)c1ccnc2sc3c(=O)n(N4CCCCCC4)cnc3c12        yes (1)
4        Cc1ccc(/C(=C\CN2CCCC2)c2ccccn2)cc1         no (0)
5  COc1c(C)cc(NC(=O)c2nn(Cc3ccc(F)cc3)c3c2CN(C(=O)c2ccc[nH]2)C[C@]3(C)C(N)=O)cc1C         no (0)

Please check the record `CC(C)(C)c1ccc(S(=O)(=O)Nc2ccc(Cl)cc2C(=O)c2cc[n+]([O-])cc2)cc1` and state if its Population Mitotic Cells (%) is at or above 60%. no (0)

---

system: Fibroblast; test: Multiplex assay against human fibroblast; format: toxicity, cell-based; conditions: 12 h, 1 µM, compound concentration 1 uM, replicate 2
assayReadout: Total Cell Count
Response field accepts a number only; no unit should be typed.

Below are worked cases with known answers.
> print(dat)
                                   molecule  obsvalue
1  Cl.Clc1ccc2nsnc2c1NC1=NCCN1 [TIZANIDINE HYDROCHLORIDE]       182
2   CN(C)c1ccnc2sc3c(=O)n(N4CCCCCC4)cnc3c12       162
3  O=C(NCC(=O)N1CC[C@H](N[C@H]2CC[C@@](O)(c3ccc(-c4ncccn4)cn3)CC2)C1)c1cccc(C(F)(F)F)c1       152
4  O=S(=O)(c1ccccc1)c1cnc2c(N3CCNCC3)cccc2c1 [INTEPIRDINE]       148
5  CN1CCN(c2nc3cc(C(F)(F)F)ccc3n3cccc23)CC1.O=C(O)/C=C\C(=O)O.O=C(O)/C=C\C(=O)O       107
6  CCCN1CCC[C@@H]2Cc3n[nH]cc3C[C@H]21.Cl [QUINPIROLE HYDROCHLORIDE]       139

Now turn to the next molecule.
The molecule listed as `CC(C)(C)c1ccc(S(=O)(=O)Nc2ccc(Cl)cc2C(=O)c2cc[n+]([O-])cc2)cc1` has a reported Total Cell Count of 152

---

Entries and their measured Population Tubulin-Different-Phenotype (%) follow.
system: HEK-293T; assay: Multiplex assay against HEK293T; assay type: toxicity, cell-based; details: human, 12 h, 1 µM, compound concentration 1 uM, replicate 2
Respond with the bare value in %.

Use the examples below as a reference point.
compound	targetDesc	unitOfMeasurement	obsValue
O=C1COc2nccc(-c3ccccc3F)c2CN1Cc1cc(C(F)(F)F)cc(C(F)(F)F)c1	HEK-293T	%	20
CCNC1(C(N)=O)CCN(c2ncnc3c2nc(-c2ccccc2Cl)n3-c2ccc(Cl)cc2)CC1	HEK-293T	%	44
CC[C@H]1OC(=O)[C@H](C)[C@@H](O[C@H]2C[C@@](C)(OC)[C@@H](O)[C@H](C)O2)[C@H](C)[C@@H](O[C@@H]2O[C@H](C)C[C@H](N(C)C)[C@H]2O)[C@@]2(C)CC(C)=C(O2)[C@H](C)[C@@H](O)[C@]1(C)O	HEK-293T	%	27
O=C(O)c1cc2ccccc2c(Cc2c(O)c(C(=O)O)cc3ccccc23)c1O	HEK-293T	%	21

GET /value?item= `CC1(COc2ccc3c(c2)ncn3-c2ccc3cccc(N4CCC(N)CC4)c3n2)COC1` &field=Population Tubulin-Different-Phenotype (%) returns 51

According to the records, this compound CN1CCN2c3ncccc3Cc3ccccc3C2C1 (configuration not stated) displays Population Tubulin-Different-Phenotype (%) of 21

The compound listed as `C[C@H]1[C@H]2CC[C@H]3[C@@H]4CC=C5C[C@@H](N(C)C)CC[C@]5(C)[C@H]4CC[C@]23CN1C` shows Population Tubulin-Different-Phenotype (%) equal to 22

Input `COc1ccccc1N1CCN(CCCCNC(=O)c2ccc3ccccc3c2)CC1.Cl` . Output Population Tubulin-Different-Phenotype (%): 35

Per the records, this compound ( `CC(=O)NCCc1c(Cc2ccccc2)[nH]c2ccccc12` ) has Population Tubulin-Different-Phenotype (%) equal to 27

---

test system: U2OS; assay: Multiplex assay against U2OS; type: toxicity, cell-based; settings: human, 24 h, 1 µM, compound concentration 1 uM, replicate 2
assayReadout: Population Membrane Permeable-Phenotype (%)
Field note: include the unit after the figure.

Record summary for `O=C1COc2nccc(-c3ccccc3F)c2CN1Cc1cc(C(F)(F)F)cc(C(F)(F)F)c1` : reported Population Membrane Permeable-Phenotype (%) = 12%

Documented Population Membrane Permeable-Phenotype (%) of `c1cc(OCCCN2CCCCC2)ccc1CN1CCCCC1` : 4%

Query `CCOc1c2c(c(OCC)c3ncccc13)CN(c1ccc(CS(=O)(=O)NC(=O)Cc3ccccc3OC)cc1C)C2=O` yields Population Membrane Permeable-Phenotype (%) of 7%

CNC[C@H](O)c1ccc(O)c(O)c1 [EPINEPHRINE] has a reported Population Membrane Permeable-Phenotype (%) of 7%

Item: `CC1(COc2ccc3c(c2)ncn3-c2ccc3cccc(N4CCC(N)CC4)c3n2)COC1` | Population Membrane Permeable-Phenotype (%): 67%

Sure, the documented Population Membrane Permeable-Phenotype (%) for Cc1ccccc1C(=O)Nc1ccc(C(=O)N2CCCC(N(C)C)c3ccccc32)cc1.Cl (stereo not given) is 5%

In plain terms, `Oc1c(CN2CCN(c3ccccn3)CC2)cc(Cl)c2cccnc12` has a documented Population Membrane Permeable-Phenotype (%) of 9%

Entry `CN(C)CCCc1cc(C(=O)Nc2ccc(-c3ccncc3)cc2)ccc1O.Cl.Cl` — recorded Population Membrane Permeable-Phenotype (%) = 7%

Consider `N#Cc1c(N)nc(SCc2csc(-c3ccc(Cl)cc3)n2)c(C#N)c1-c1ccc(OCCO)cc1` . Its measured Population Membrane Permeable-Phenotype (%) is 5%

Short answer for `O=C(NCC(=O)N1CC[C@H](N[C@H]2CC[C@@](O)(c3ccc(-c4ncccn4)cn3)CC2)C1)c1cccc(C(F)(F)F)c1` : Population Membrane Permeable-Phenotype (%) was 5%
